Data origin, for the record: the Human Domainome abundance scans (Beltran et al. 2025)

B1: Peroxisome proliferator-activated receptor delta, residues 71 to 145; numbered along this chain, Q03181 (parent)
chain: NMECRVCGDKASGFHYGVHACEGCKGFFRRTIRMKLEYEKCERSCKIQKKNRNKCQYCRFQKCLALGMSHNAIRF

variants of: B1; test: abundance fitness (aPCA) (normalised: wild type 0, dead -1); higher = more abundant; growth selection in yeast, the domain comes from the species named; details: Homo sapiens
Binary call on abundance fitness: y from -0.1 upward, n beneath that.

Worked examples follow.
# VARIANT NOTATION, CATEGORY LABEL
measured = [
    ("F27K", "n"),
    ("G23S", "y"),
    ("C45H", "n"),
    ("C55F", "n"),
]

[Q] Could you please find out whether `C7R` has abundance fitness that meets -0.1 or exceeds it?
[A] n

[Q] Is the recorded value of abundance fitness equal to or greater than -0.1 for this variant? `E37P`
[A] n

[Q] Form field: abundance fitness at least -0.1? Entry: `M34S`
[A] y
